B1: WDR41 (parent)
chain: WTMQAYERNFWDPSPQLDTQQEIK

# Variants of: B1
# Test method notes: protein stability index of a GFP-peptide fusion (GPS, HEK-293T) (PSI 1-6); higher = more stable;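 note: lentivirally expressed fusions sorted by FACS into six bins by GFP to DsRed ratio, PSI derived from sequencing read proportions per bin multiplied by bin number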
# Measurement context: c terminus: a fixed tail appended
Property name: protein stability index
One number for each entry.

Some solved entries appear below for comparison.
- F10R: 3.55
- S14H: 1.94
- P15Y: 1.81
- P13F: 1.82
- R8K: 2.86
- Q20K: 2.28

For the 4 variants below, give their protein stability index values.
1. K24G
2. S14F
3. E22F
4. Q4W

OUTPUT:
2.29
2.56
2.11
1.72

# credit: the supplement of paper PMC10567573
